test system: OVCAR-8; experiment: NCI tumour cell line growth inhibition, 48 h
Activity calls are given as the source filed them. Rule as the data show it: active = GI50 up to about 1.1 µM and inactive = higher.
Entry note: the call must match one of active, inactive

>  <molecule>
O=C(O)Cc1cccc2c(=O)cc(-c3ccccc3)oc12

>  <experimentalSystem>
OVCAR-8

>  <category>
inactive

$$$$
>  <molecule>
NC1=NC(c2ccccc2)CC(c2cc(Cl)cc(Br)c2O)=N1 (stereo not given)

>  <experimentalSystem>
OVCAR-8

>  <category>
inactive

$$$$
>  <molecule>
CN(C)c1ccc(C(=C(c2ccc(N(C)C)cc2)c2ccc(N(C)C)cc2)c2ccc(N(C)C)cc2)cc1

>  <experimentalSystem>
OVCAR-8

>  <category>
inactive

$$$$
>  <molecule>
C/C(=N\NC(=O)C[N+](C)(C)C)c1sc(-c2cccnc2)nc1C

>  <experimentalSystem>
OVCAR-8

>  <category>
inactive

$$$$
>  <molecule>
CCN(CCCl)c1cc(CN(C)C)cc(NC(=O)c2ccc(C(=O)Nc3cccc(CN(C)C)c3)cc2)c1

>  <experimentalSystem>
OVCAR-8

>  <category>
active

$$$$
>  <molecule>
C1CCSCCCCSCCCCSCCCCSC1

>  <experimentalSystem>
OVCAR-8

>  <category>
inactive

$$$$

Then there is this molecule:
Problem: Hey, what did the test say about COC1=CCC2=C(CCN(C(=O)C3CCC3)C2Cc2ccc(OC)c(O)c2)C1 (stereo not given) ?
Solution: inactive
